Source: patent US20250361295A1

- targetSystem: T1, human LILRA2 (human, UniProt Q8N149 24-483)
- T1 construct: whole, on cells; also called hLILRA2
- T1 sequence (Q8N149 24-483): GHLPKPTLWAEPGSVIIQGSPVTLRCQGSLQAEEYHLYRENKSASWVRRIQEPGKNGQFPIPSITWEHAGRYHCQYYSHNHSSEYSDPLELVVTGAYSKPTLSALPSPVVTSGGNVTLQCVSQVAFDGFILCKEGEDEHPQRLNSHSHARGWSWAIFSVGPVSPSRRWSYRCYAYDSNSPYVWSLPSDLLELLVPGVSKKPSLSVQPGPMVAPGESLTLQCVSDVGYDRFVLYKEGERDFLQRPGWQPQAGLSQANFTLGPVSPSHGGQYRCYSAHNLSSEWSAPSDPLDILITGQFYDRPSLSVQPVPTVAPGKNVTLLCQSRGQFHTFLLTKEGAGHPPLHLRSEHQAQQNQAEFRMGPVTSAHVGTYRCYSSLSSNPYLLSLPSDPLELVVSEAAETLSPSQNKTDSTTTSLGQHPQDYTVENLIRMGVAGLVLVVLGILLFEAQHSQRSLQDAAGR
- assay: FACS, 293F-hLILRA2 cells
Measured MFI of individual entries
Number in MFI, nothing else.

// below: answered binders
binder	scaleUnit	MFI
27-D11-C2-A10 (antibody, V domains shown, mouse monoclonal hybridoma antibody) VH: EVQLVESGGGLVQPGGSRKLSCAASGFTFSVFGVHWVRQAPEKGLEWVAYISSGSNTIHYADTVKGRFTISRDIPKNTLFLQMTSLRSEDTAMYYCARSSGTGAMDYWGQGTSVTVSS VL: DIQMTQSTSSLSASLGDRVSISCRASQDISNYLNWYQQKPDGAVKLLIYYTSRLHSGVPSRFSGSGSGTDYSLTISNLDQEDIATYFCQQGNTLPWTFGGGTKLELK	MFI	17.8
2-H8-C9-F7-E2 (antibody, V domains shown, mouse monoclonal hybridoma antibody) VH: EVQLQQSGAELVKPGASVKLSCKASGYTFTNYWMHWVKQRPGQGLEWIGEINPSNGRTNYNEKFKSKATLTVDKSSSTAYMQLSSLTSEDSAVYYCARGSLTTVVPFDYWGQGTTLTVSS VL: DIQMTQTPSSLSASLGGKVTITCKASQDINNYIAWYQHKPGKGPRLLIHYTSTLQPGIPSRFSGSGSGRDYSFSISNLEPEDIATYFCLQYDILLTFGGGTKLEK	MFI	19.7

Now look at this entry.
In one line, give reported MFI of the entry 27-G5-E9-B8 (antibody, V domains shown, mouse monoclonal hybridoma antibody) VH: EVQLVESGGGLVQPGGSRKLSCAASGFTFSSFGMHWVRQAPEKGLEWVAYISSGSSTIYYADTVKGRFTISRDNPKNTLFLQMTSLRSEDTAMYYCARSTGTGAMDYWGQGTSVTVSS VL: DIQMTQTTSSLSASLGDSVTFSCRASQDISNYLNWYQQKPDGTVKLLISYTSRLHSGVPSRFSGSGSGTDYSLTISNLEQEDIATYFCQQGNALPWTFGGGTKLEIK . 17.7
